# TARGET_UNDER_TEST: NADPH oxidase 5 (Homo sapiens)
# TEST_SUMMARY: NOX5-dependent H2O2 signal modulators, primary screen, NOX inhibitor project, cell-based, HEK293-NOX5, Amplex Red fluorescence (AID 1161)
# RECORDED_CONDITIONS: HEK293-NOX5, ionomycin, 45 min, higher = more signal
Each entry gets condition not met if its z-score stays under 1, and condition met if its z-score is 1 or above.

Example entries and their recorded answers appear below.
>  <COMPOUND>
C[N+](C)(C)CCCCCCNC(=O)[C@@H]1C[C@@H]2C(=O)N3CCC[C@H]3C(=O)N2[C@@H]1c1cccc(OCCO)c1

>  <TARGET_UNDER_TEST>
NADPH oxidase 5 (Homo sapiens)

>  <LABEL_CLASS>
condition met

$$$$
>  <COMPOUND>
COCCCNC(=O)[C@@]1(C)c2ccccc2C(=O)N(Cc2ccc(OC(F)(F)F)cc2)[C@H]1c1ccc(CO)cc1

>  <TARGET_UNDER_TEST>
NADPH oxidase 5 (Homo sapiens)

>  <LABEL_CLASS>
condition not met

$$$$
>  <COMPOUND>
COc1ccc(-c2nc3c(c4c2C[C@H](C)OC4)CN(CCC(C)C)CC3)cc1

>  <TARGET_UNDER_TEST>
NADPH oxidase 5 (Homo sapiens)

>  <LABEL_CLASS>
condition not met

$$$$

Query: # check: z-score of "COc1ccc([Si](C)(C)[C@H]2[C@H](CC(=O)N3CCC[C@H]3CO)O[C@@]3(C(=O)N(Cc4cccc(N5C(=O)COc6ccccc65)c4)c4ccccc43)[C@@H]2C)cc1" is greater than or equal to 1
Result: condition met

Query: Quick check: does CC1(C)OCC(C(O)C2=CCCCC2=O)CO1 (stereo not given) have z-score greater than or equal to 1?
Result: condition met

---

# TEST_SUMMARY: small-molecule microarray binders of probe aDKK1, primary screen, biochemical, biotinylated probe, 635/667 nm fluorescence (AID 1099);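 note: score merges 667nm spot fluorescence with signal to noise across triplicate slides; reference of the scale not given here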
# RECORDED_CONDITIONS: higher = more signal
PARAMETER: composite z-score
# respond with the number and nothing more

Consider the following illustrative entries.
>  <COMPOUND>
CC(CCN1CCCCc2nc(C)c(C)cc21)=NOC(C)CN1CCCCc2nc(C)c(C)cc21 (stereo not drawn)

>  <composite z-score>
-0.142

$$$$
>  <COMPOUND>
O=C1NC(=O)C2C1C=CC(C(O)Cc1ccccc1)N2Nc1ccccn1 (stereo not drawn)

>  <composite z-score>
0.133

$$$$
>  <COMPOUND>
CCc1cc2c(nc1CC)CCN(CCC(C)=NO[C@@H](C)c1cc(-c3c(C)cc(C)cc3C)no1)C2

>  <composite z-score>
-0.227

$$$$
>  <COMPOUND>
O=C1O[C@@H](c2ccccc2)[C@@H](c2ccccc2)N2[C@@H](c3ccc(O)cc3)[C@]3(C(=O)Nc4ccccc43)[C@@H](C(=O)O)[C@H]12

>  <composite z-score>
0.74

$$$$
>  <COMPOUND>
COC(=O)[C@@H]1CCCN1C(=O)[C@@H](C)CO

>  <composite z-score>
-0.0908

$$$$

Query: Look at this compound and give its reported composite z-score. "COCCCNC(=O)[C@@]1(CCS(=O)(=O)c2ccccc2)N=C(c2ccc(OCCCO)cc2)O[C@H]1c1ccccc1"
Result: 1.45

Query: Any idea what composite z-score was measured for "C[C@@H](c1ccccc1)N1C(=O)[C@H]2[C@H]3[C@H](O)[C@H](O)CC(=NOC[C@@H](O)COCc4ccco4)[C@@H]3CC[C@H]2C1=O" ?
Result: -0.349

Query: I am curious: what composite z-score value has been reported for "C#CCCCON=C1C[C@@H](O)[C@@H](O)[C@@H]2[C@@H]3C(=O)N([C@@H](C)c4ccccc4)C(=O)[C@@H]3CC[C@H]12" ?
Result: -0.253
